B1: library; a variant is named by its letters at N, in order (parent)
chain: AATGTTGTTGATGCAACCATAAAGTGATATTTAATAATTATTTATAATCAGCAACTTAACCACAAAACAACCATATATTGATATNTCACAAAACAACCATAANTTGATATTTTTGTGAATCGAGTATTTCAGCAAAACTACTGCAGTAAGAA

# Variants of: B1
# TEST_NAME: relative integration efficiency (T-RL orientation) vs wild-type transposon end (log2 (normalized fold change)); transposon end mutated: left end; higher = more efficient transposition
# CONDITION_DETAILS: with VchCAST RNA-guided transposition machinery (E. coli BL21(DE3) host, lacZ target)
Known relative integration efficiency (log2) of a selection of variants

SEQUENCE_CHANGE | relative integration efficiency (log2)
CG T8A T9A | -0.297
CT A102C | -0.973
CG T9A | -0.00405
CG A40T T41A | -0.0047
CG G117C A118T A119T T120A | 0.268
TA T76A T78G C87A A96C T110A T113A | -0.0885
CG A119C T120G | -0.131
CG G51C | -0.42
CG T28A T82A T108A | -1.09
CG A50T G51C C52G A53T | -0.552
CG C68T | -0.627
CG T38A T39A | 0.474
CG G117T A118C A119C T120G | 0.0586
CG A118T A119T | -0.158
CG A83T T84A | -0.194
CG T84G | -0.591
CG C14G A15T A16T C17G | -1.26
CG T56G | -0.112
CG A62C C63A A64C A65C | -0.324
CG T39G A40C | -0.535
CG T76A A77T T78A T79A | -0.611
CG T43A | 0.0102
TA A16C G24T T32G A33C T76A T78A T84A C87A A102T T111C T113C | -0.405
CG T100A | 0.66
CG C60T | -0.00379
CA A16C G24T T30A A102T T111C T113C | -0.887
CG A90G | -0.339
CG G115T T116G G117T A118C A119C T120G C121A G122T A123C G124T T125G | 0.000247
CA A23G G24T A33T T104A T110A T113A | -0.424
TA A16C G24T T32G A33C T76A A77G C87T T104A T110A T113A | -1.38
CG A50C G51T C52A A53C | -0.0487
CG A21C A22C A23C G24T | -1.03
CG A36T A37T | 0.0996
TA A16C G24T T32G A33C T76A T78G C87A A96C T110A T113A | -0.233
CG C94A | -0.268
CG T56G T57G | -1.59
CG A62T C63G A64T A65T | 0.339
CG A62C | -0.0795
TG A16C G24T T32G A33C T76A A77G C87T | -0.603
CG C52G A53T A54T C55G | 0.0283
CG A95G | -0.845
CG T25A G26C | -1.73
CG A36G | -0.259
CG G26C | -1.36
CG A46T A47T | 0.452
CG G115C T116A G117C A118T | -0.12
CG T114G G115T | -0.471

Where do the numbers come from? From the supplement of paper PMC10201428.
